Numbers sourced from patent US8058475B2.

target: UniProt:P35372; test: Affinity for the human μ-opiate receptor ([3H]-naloxone displacement, SPA, CHO-K1 membrane preparation); assay type: binding; settings: 1 μM test substance; inhibition of specific [3H]-naloxone binding; read-out: μ-Opioid receptor, % inhibition [1 μM]
Where a name gives a salt, the structure may show the parent alone.
param class (str): category from inhibition at 1 µM; see ranges band A: < 60%; band B: ≥ 60% and < 80%; band C: ≥ 80%

Below are worked cases with known answers.
{"compound": "CN(C)C(c1ccccc1)C1CCC(CC=O)CC1 (stereo not drawn)", "classLabel": "band B"}
{"compound": "CN(C)C(c1ccccc1)C1CCC(Nc2ccccc2)CC1 (stereo not drawn) [compound 92, hydrochloride]", "classLabel": "band C"}
{"compound": "Cc1cc(C2(O)CCC(C(c3ccccc3)N(C)C)CC2)ccc1F (stereo not drawn)", "classLabel": "band B"}
{"compound": "COc1cccc(CC2(O)CCC(C(c3cccc(F)c3)N(C)C)CC2)c1 (stereo not drawn)", "classLabel": "band B"}

[Q] Band for the recorded inhibition at 1 µM of CN(C)C(c1ccc(F)cc1)C1CCC(CCCO)CC1 (stereo not drawn) ?
[A] band A

[Q] Hi there! Could you help me figure out the category for CN(C)C(c1cccc(F)c1)C1CCC(CCN)CC1 (stereo not drawn) please?
[A] band B

[Q] Which of the defined bands does the recorded inhibition at 1 µM of CN(C)C(c1ccc(Cl)cc1)C1CCC(CO)CC1 (stereo not drawn) sit within?
[A] band A

###

target: Noradrenaline (NA) reuptake (Rattus norvegicus); construct: synaptosomes are freshly isolated from areas of rat brain; from tissue; host or cells: rat hypothalamus synaptosomes (P2 fraction); assay: Noradrenaline (NA) reuptake inhibition in rat brain synaptosomes (hypothalamus, P2 fraction); format: biochemical; conditions: read-out: NA reuptake, % inhibition [10 μM]
Sequence (Q63380 1-617): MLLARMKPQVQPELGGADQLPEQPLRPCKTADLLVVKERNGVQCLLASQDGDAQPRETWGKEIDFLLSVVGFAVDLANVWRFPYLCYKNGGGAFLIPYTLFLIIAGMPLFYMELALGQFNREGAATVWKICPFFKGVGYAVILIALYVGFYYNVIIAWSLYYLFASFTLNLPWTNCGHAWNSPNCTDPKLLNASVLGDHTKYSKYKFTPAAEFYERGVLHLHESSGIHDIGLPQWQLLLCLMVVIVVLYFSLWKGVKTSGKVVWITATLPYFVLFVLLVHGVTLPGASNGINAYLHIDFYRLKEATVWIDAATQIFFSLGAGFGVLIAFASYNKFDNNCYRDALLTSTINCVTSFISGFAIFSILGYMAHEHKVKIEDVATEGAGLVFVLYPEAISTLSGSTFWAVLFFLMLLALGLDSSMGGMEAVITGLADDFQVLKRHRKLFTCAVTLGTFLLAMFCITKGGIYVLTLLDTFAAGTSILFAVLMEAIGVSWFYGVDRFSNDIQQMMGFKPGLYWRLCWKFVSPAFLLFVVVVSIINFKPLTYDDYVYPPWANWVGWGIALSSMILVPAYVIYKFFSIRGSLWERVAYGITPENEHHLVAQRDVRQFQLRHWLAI
Where a name gives a salt, the structure may show the parent alone.
reportedEndpoint: inhibition at 10 µM (%)
Your answer should be a plain number; it is taken to be in %.

Recorded results for 5 compounds are shown here.
{"compound": "CN(C)C(c1ccccc1)C1CCC(Nc2ccccc2)CC1 (stereo not shown) [compound 92, hydrochloride]", "inhibition at 10 µM [%]": 75}
{"compound": "CN(C)C(c1ccccc1)C1CCC(NC(=O)c2nc(-c3cccs3)no2)CC1 (stereo not shown) [compound 497]", "inhibition at 10 µM [%]": 101}
{"compound": "Cc1ccc(C(C2CCC(=CC(=O)NCCc3ccccc3)CC2)N2CCCCC2)cc1 (stereo not shown) [compound 494]", "inhibition at 10 µM [%]": 81}
{"compound": "CN(C)C(c1ccccc1)C1CCC(NS(=O)(=O)c2ccc(C(C)(C)C)cc2)CC1 (stereo not shown) [compound 108, hydrochloride]", "inhibition at 10 µM [%]": 75}
{"compound": "CN(C)C(c1ccccc1)C1CCC(NC(=O)Nc2ccccc2[N+](=O)[O-])CC1 (stereo not shown) [compound 76, hydrochloride]", "inhibition at 10 µM [%]": 100}

[Q] What value of inhibition at 10 µM has been reported for the following compound? CN(C)C(c1ccc(Cl)cc1)C1CCC(CCN)CC1 (stereo not shown) [compound 66]
[A] 96

[Q] What does the record list as inhibition at 10 µM for CN(C)C(CCc1ccccc1)C1CCC(O)CC1 (stereo not shown) [compound 116] ?
[A] 95

[Q] // lookup inhibition at 10 µM for CCOC(=O)C=CC1CCC(C(CCc2ccccc2)N(C)C)CC1 (stereo not shown) [compound 141]
[A] 98

[Q] Which inhibition at 10 µM reading was recorded for the compound CN(C)C(c1ccc(Cl)cc1)C1CCC(CO)CC1 (stereo not shown) [compound 120] ?
[A] 93

[Q] Look at this compound and give its reported inhibition at 10 µM. CN(C)C(c1ccccc1)C1CCC(NCCCc2ccccc2)CC1 (stereo not shown) [compound 85, dihydrochloride]
[A] 103

###

biological target: human μ-opiate receptor (Homo sapiens); assay: Affinity for the human μ-opiate receptor ([3H]-naloxone displacement, SPA, CHO-K1 membrane preparation); assay type: binding; conditions: 1 μM test substance; inhibition of specific [3H]-naloxone binding; read-out: μ-Opioid receptor, % inhibition [1 μM]
Sequence (P35372 whole entry): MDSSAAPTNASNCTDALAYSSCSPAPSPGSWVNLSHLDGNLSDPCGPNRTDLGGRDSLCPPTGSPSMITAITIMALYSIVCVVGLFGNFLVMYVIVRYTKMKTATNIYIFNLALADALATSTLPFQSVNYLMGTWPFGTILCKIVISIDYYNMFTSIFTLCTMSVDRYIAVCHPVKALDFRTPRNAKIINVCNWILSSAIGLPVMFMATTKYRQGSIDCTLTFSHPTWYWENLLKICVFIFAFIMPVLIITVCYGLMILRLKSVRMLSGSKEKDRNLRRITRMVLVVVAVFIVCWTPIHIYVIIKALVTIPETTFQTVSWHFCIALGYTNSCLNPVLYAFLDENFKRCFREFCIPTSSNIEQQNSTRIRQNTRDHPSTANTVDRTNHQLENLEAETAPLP
Where a name gives a salt, the structure may show the parent alone.
reportedEndpoint: inhibition at 1 µM (%)
Record the value in %, omitting the unit from your answer.

Known inhibition at 1 µM results, listed for orientation:
{"molecule": "CCOC(=O)CC1CCC(C(c2cccc(F)c2)N(C)C)CC1 (centres unmarked)", "reportedEndpoint": "inhibition at 1 µM", "experimentalResult": 82}
{"molecule": "CN(C)C(c1cccs1)C1CCC(N)CC1 (centres unmarked)", "reportedEndpoint": "inhibition at 1 µM", "experimentalResult": 74}
{"molecule": "CN(C)C(c1ccc(Cl)cc1)C1CCC(O)(c2cc(F)cc(F)c2)CC1 (centres unmarked)", "reportedEndpoint": "inhibition at 1 µM", "experimentalResult": 62}
{"molecule": "CCOC(=O)C=CC1CCC(C(c2ccc(F)cc2)N(C)C)CC1 (centres unmarked)", "reportedEndpoint": "inhibition at 1 µM", "experimentalResult": 70}
{"molecule": "COc1cccc(C2(O)CCC(C(c3ccc(Cl)cc3)N(C)C)CC2)c1 (centres unmarked)", "reportedEndpoint": "inhibition at 1 µM", "experimentalResult": 58}
{"molecule": "CN(C)C(c1ccccc1)C1CCC(NC(=O)Nc2cccc(Br)c2)CC1 (centres unmarked) [compound 77, hydrochloride]", "reportedEndpoint": "inhibition at 1 µM", "experimentalResult": 88}
{"molecule": "CN(C)C(c1ccccc1)C1CCC(CN)CC1 (centres unmarked)", "reportedEndpoint": "inhibition at 1 µM", "experimentalResult": 94}

Now for the molecule whose inhibition at 1 µM we want.
[Q] Which value of inhibition at 1 µM has been reported for CN(C)C(c1cccc(F)c1)C1CCC(O)CC1 (centres unmarked) in the records?
[A] 46

###

Quick list: inhibition at 10 µM per entry.
molecular target: Noradrenaline (NA) reuptake (Rattus norvegicus); construct: synaptosomes are freshly isolated from areas of rat brain; from tissue; host or cells: rat hypothalamus synaptosomes (P2 fraction); test: Noradrenaline (NA) reuptake inhibition in rat brain synaptosomes (hypothalamus, P2 fraction); type: biochemical; conditions: read-out: NA reuptake, % inhibition [10 μM]
Quick reminder: number only, in %, skip the unit.

See these solved cases before continuing.
{"molecule": "CCOC(=O)CC1CCC(C(c2ccc(F)cc2)N(C)C)CC1 (stereo not drawn)", "unitString": "%", "experimentalResult": 89}
{"molecule": "CN(C)C(c1ccccc1)C1CCC(CN)CC1 (stereo not drawn)", "unitString": "%", "experimentalResult": 89}

Attention now shifts to the item below.
[Q] // lookup inhibition at 10 µM for CCOC(=O)C=C1CCC(C(c2ccccc2)N(C)C)CC1 (stereo not drawn)
[A] 66
